Read-out: Tumor necrosis factor receptor 1 (TNFRSF1A), TNFRSF1A (gene 7132)
ASSAY OVERVIEW: LTEA_HepaRG_TNFRSF1A: Life Technologies and Expression Analysis (LTEA) Assay for Tumor necrosis factor receptor 1 (TNFRSF1A) using HepaRG (AID 2283535)
TEST PARAMETERS: mRNA level, 48 h; actives raise or lower the signal
Activity calls are given as the source filed them. Rule for the calls: active = hit-call score of the fitted dose curve at least 0.9, where 1 is the maximum; inactive = score below 0.9.
Your reply should match one of these outcome classes. active, inactive

A selection of reference data follows.
q: How did this test come out for "Cc1c2ccccc2c(C)c2c1ccc1ccccc12" ?
a: inactive

q: Given "CN1C(=O)CC[C@H]1c1cccnc1" , state the outcome it received in this test.
a: inactive

q: What was the test verdict on "O=c1ccc2ccccc2o1" ?
a: inactive

q: Hello, I am checking results. What call was entered for "CC[C@H](NC(=O)c1cc(F)ccc1NS(=O)(=O)c1cccc2cccnc12)c1ccccc1" ?
a: inactive

q: # lookup: test call for COCC(C)OCC(C)OCC(C)O (stereo unspecified)
a: inactive

q: What was the test verdict on "Clc1cc(Cl)c2c(c1)N=C1CCCCCN1C2" ?
a: inactive

q: Kindly provide the recorded test outcome for the following compound: "O=c1[nH]sc2ccccc12"
a: inactive

q: Entry "O=c1c(-c2ccc(O)cc2)coc2cc(O)cc(O)c12" : call = ?
a: inactive

Kindly review the next compound as well.
q: Answer briefly: the call reported for "Oc1ccccc1" in this assay.
a: inactive
